Every entry's value here was drawn from the nanobody polyreactivity screen of Harvey et al. (2022).

- Protocol text: yeast display, Sf9 membrane polyspecificity reagent, FACS + sequencing; frameworks hold sequencing errors
Experimental readout: polyreactivity (PSR sort gate)

QVQLVESGGGLGQAGGSLRLRCAASGSTFQYYAMGWYRQAPGKERELVAAITHSGTRTYYADSVKGRFTISRDNAKNTVYLQMNSLKPVDTAVYYCAARGYGKYDYWGQGTQVTVSS	high polyreactivity
QVQLVESGGGLVQEGGSLRLSCAASGRIFVGNAMGWYRQAPGKERELVASMTRGRRTNYADSVKGRFTISRDNAKNTVFFQMNSLKPVDTAVYYCNAPGVTRAYLVGYDYWGQGTQVTVSS	low polyreactivity
QVQLVESGGGLVQAGGSLRLSCAASGFTFYRYAMGWYRQAPGKERELVAAITQSGGSTYYADSVKGRFTISRDNAKNTVYLQMNSLKPEDTAVYYCAARYRYDYGYGLGYSWGQGTQVTVSS	high polyreactivity
QVQLVESGGGLVLAGGSLRLSCAASGRIFIGNAMGWYRQAPGKERELVAAISKRGGSTYYADSVKGRFTISRDNAKNTVYLQMISLKPEDTAVYYCNKEPLYREFDYWGQGTQVTVSS	low polyreactivity

Here is another sequence to look at.
Exam item: Which polyreactivity (PSR sort gate) is listed for QVQLVESGGGLVQAGGSLLLSCAPSGSTIPSYAMGWYRQSPGKERELVASITYSDGTTRYADSVKGRFTISRDNAKNTVYLQMNSLKPEDTAVYYCNAVYYREGMDYWGQGTQVTVSS ?
Marked response: low polyreactivity
